Reported AC50 for target or system Neuronal acetylcholine receptor subunit alpha-4 (Homo sapiens), by entry. Note: assay procedure not described here.

Solved cases (4 shown):
compound	AC50
CC(=O)OCC(=O)[C@@]1(O)[C@H](C)C[C@H]2[C@@H]3CCC4=CC(=O)C=C[C@]4(C)[C@@]3(F)[C@@H](O)C[C@@]21C [DEXAMETHASONE ACETATE]	> 10 µM
CCN(CC)C(=O)Nc1ccc(OCC(O)CNC(C)(C)C)c(C(C)=O)c1 (stereo not given)	> 30 µM
CCCCC1C(=O)N(c2ccccc2)N(c2ccccc2)C1=O	> 30 µM
CCCC(CCC)C(=O)O	> 10 µM

From here, focus on the item given below.
Prompt line: // map CC1OC2(CS1)CN1CCC2CC1 (stereo not given) to recorded AC50 (system: Neuronal acetylcholine receptor subunit alpha-4 (Homo sapiens)); note: assay procedure not described here
Sequence (P43681 whole entry): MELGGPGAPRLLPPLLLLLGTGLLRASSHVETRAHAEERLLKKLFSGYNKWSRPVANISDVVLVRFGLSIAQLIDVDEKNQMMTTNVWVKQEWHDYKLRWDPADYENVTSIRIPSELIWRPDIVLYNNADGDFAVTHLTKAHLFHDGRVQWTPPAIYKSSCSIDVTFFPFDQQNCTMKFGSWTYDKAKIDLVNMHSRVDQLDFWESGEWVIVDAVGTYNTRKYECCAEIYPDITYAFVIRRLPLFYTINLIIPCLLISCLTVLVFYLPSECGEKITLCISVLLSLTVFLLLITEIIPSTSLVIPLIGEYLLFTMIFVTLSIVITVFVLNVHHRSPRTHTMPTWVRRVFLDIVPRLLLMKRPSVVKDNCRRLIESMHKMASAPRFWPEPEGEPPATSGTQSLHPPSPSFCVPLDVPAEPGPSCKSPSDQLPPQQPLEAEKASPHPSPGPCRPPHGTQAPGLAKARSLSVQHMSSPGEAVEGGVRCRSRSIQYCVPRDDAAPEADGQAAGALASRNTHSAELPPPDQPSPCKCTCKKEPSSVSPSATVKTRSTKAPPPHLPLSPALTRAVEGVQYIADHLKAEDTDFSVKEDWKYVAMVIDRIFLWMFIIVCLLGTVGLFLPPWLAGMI
Response line: > 10 µM
